# TARGET DESC: Arachidonate 5-lipoxygenase-activating protein (Homo sapiens, UniProt P20292)
# Sequence (P20292 whole entry): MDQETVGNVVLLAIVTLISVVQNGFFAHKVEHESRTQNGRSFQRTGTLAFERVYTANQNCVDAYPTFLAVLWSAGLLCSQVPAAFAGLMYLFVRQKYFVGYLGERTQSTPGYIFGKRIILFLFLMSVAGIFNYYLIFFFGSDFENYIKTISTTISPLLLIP
# METHOD: Inhibition of 5-lipoxygenase-activating protein in human polymorphonuclear cells assessed as inhibition of calcium ionophore-induced LTB4 production in presence of human whole blood
# Format: tissue-based
pIC50: −log10 of the molar value.
MEASUREMENT LABEL: pIC50

{"columns": ["COMPOUND", "pIC50"],
 "data": [
  ["CC(C)n1nnc(-c2ccc(OCc3ccc4ccccc4n3)cc2[C@]2(c3ccccc3)C[C@H]3CC[C@H]2C3)n1 (racemic)", 6.83],
  ["Cc1nnc(-c2ccc(OCc3ccc4ccccc4n3)cc2[C@]2(c3ccccc3)C[C@H]3CC[C@H]2C3)o1 (racemic)", 6.34]
]}

P = CC1CC(c2ccccc2)(c2cc(OCc3ccc4ccccc4n3)ccc2-c2n[nH]c(=O)o2)C1 (mixture of isomers)
Q = COC(=O)c1ccc(OCc2ccc3ccccc3n2)cc1C1(c2ccccc2)CC(C)(C)C1
Identify the entry with the smaller pIC50: P or Q . Please respond with the label that marks your chosen entry.
Q

###

# METHOD: Half life in Sprague-Dawley rat at 1 mg/kg, iv and 2 mg/kg, po
# Assay type: ADME, organism-based
# SETTINGS: in vivo
MEASUREMENT LABEL: half-life (h)

A = CC1CC(c2ccccc2)(c2cc(OCc3ccc4ccccc4n3)ccc2-c2n[nH]c(=O)o2)C1 (mixture of isomers)
B = CC(C)(C)[C@@H](c1ccccc1)c1cc(OCc2ccc3ccccc3n2)ccc1-c1n[nH]c(=O)o1
C = COc1cccc([C@]2(c3cc(OCc4ccc5ccccc5n4)ccc3-c3n[nH]c(=O)o3)C[C@H]3CC[C@H]2C3)c1
// sort entries: half-life, high to low Present the labels in the sequence the task asks for.
B, A, C
(B: 4.3 h, A: 2 h, C: 1.2 h)

A = CC1(C)CC(c2ccccc2)(c2cc(OCc3ccc4ccccc4n3)ccc2-c2n[nH]c(=O)o2)C1
B = O=c1[nH]nc(-c2ccc(OCc3ccc4ccccc4n3)cc2[C@@]2(c3ccccc3)C[C@H]3CC[C@H]2C3)o1
Identify the entry with the smaller half-life: A or B . Please respond with the label that marks your chosen entry.
B

###

# Tested on: Rattus norvegicus
# METHOD: Dose normalised AUC in Sprague-Dawley rat at 1 mg/kg, iv
# Format: ADME, organism-based
# Set-up: dose 1 mg/kg, route intravenous
# SETTINGS: in vivo
MEASUREMENT LABEL: AUC/dose (µM·kg·h/mg)

These recorded examples may help you get a feel for the data.
{"columns": ["COMPOUND", "AUC/dose, µM·kg·h/mg"],
 "data": [
  ["CC(C)(C)[C@@H](c1ccccc1)c1cc(OCc2ccc3ccccc3n2)ccc1-c1n[nH]c(=O)o1", 0.34],
  ["CC1CC(c2ccccc2)(c2cc(OCc3ccc4ccccc4n3)ccc2-c2n[nH]c(=O)o2)C1 (mixture of isomers)", 0.19],
  ["COc1cccc([C@]2(c3cc(OCc4ccc5ccccc5n4)ccc3-c3n[nH]c(=O)o3)C[C@H]3CC[C@H]2C3)c1", 0.79]
]}

1 = O=c1[nH]nc(-c2ccc(OCc3ccc4ccccc4n3)cc2[C@@]2(c3ccccc3)C[C@H]3CC[C@H]2C3)o1
2 = CC1(C)CC(c2ccccc2)(c2cc(OCc3ccc4ccccc4n3)ccc2-c2n[nH]c(=O)o2)C1
I'd appreciate it if you could identify which of 1 and 2 has the greater AUC/dose. Please respond with the label that marks your chosen entry.
1
(1: 0.58 µM·kg·h/mg, 2: 0.05 µM·kg·h/mg)
